target: Ras farnesyl transferase (Rattus norvegicus, UniProt Q02293+Q04631)
Construct: endogenous in cells; host or cells: Rat2 fibroblasts transformed with H-Ras or with an H-Ras/K-Ras C-terminus fusion
assayName: In vivo (cellular) inhibitory activity for Ras farnesyl transferase, Rat2 cell line transformed with fused protein of H-Ras substituted with polybasic lysine domain at C-terminus of K-Ras
Assay type: cell-based
conditionSummary: Rat2 cell line transformed with H-Ras fused with polybasic lysine domain of K-Ras C-terminus; concentration inhibiting 50% of farnesyl bonding; read-out: K-Ras CIC50
pIC50: −log10 of the molar value.
valueKind: pIC50

These solved cases illustrate the format of a correct answer.
# chemSmiles, target, measuredValue
data = [
    ("COCCN(C)C(=O)c1cn(Cc2cncn2CCOC)cc1-c1cccc2ccccc12", "Ras farnesyl transferase (Rattus norvegicus, UniProt Q02293+Q04631)", "> 4.40"),
    ("Cc1ccc(Cn2cncc2Cn2cc(C(=O)N3CCOCC3)c(-c3cccc4ccccc34)c2)cc1", "Ras farnesyl transferase (Rattus norvegicus, UniProt Q02293+Q04631)", "4.70 to 5.00"),
    ("O=C(NCc1ccccc1)c1cn(Cc2c[nH]cn2)cc1-c1cccc2ccccc12", "Ras farnesyl transferase (Rattus norvegicus, UniProt Q02293+Q04631)", "4.00 to 5.00"),
    ("COCCN(C)C(=O)c1cn(Cc2cncn2Cc2ccccc2Cl)cc1-c1cccc2ccccc12", "Ras farnesyl transferase (Rattus norvegicus, UniProt Q02293+Q04631)", "4.30 to 5.00"),
]

Entry under review: O=C(c1ccccc1Br)c1cn(Cc2c[nH]cn2)cc1-c1cccc2ccccc12 . Reported pIC50? 4.00 to 5.00

Which pIC50 is reported for this compound? O=C(c1ccc(Cl)cc1)c1cn(Cc2c[nH]cn2)cc1-c1cccc2ccccc12 4.00 to 5.00

Name the reported pIC50 value associated with the compound N#Cc1ccc(Cn2cncc2Cn2cc(C(=O)c3ccsc3)c(-c3cccc4ccccc34)c2)cc1 4.00 to 5.00

// returns reported pIC50 for input O=C(c1ccc(Cl)cc1Cl)c1cn(Cc2c[nH]cn2)c(Cc2ccccc2)c1-c1cccc2ccccc12 4.00 to 5.00

* * *

target: Ras farnesyl transferase (Rattus norvegicus, UniProt Q02293+Q04631)
Construct: endogenous in cells; host or cells: Rat2 fibroblasts transformed with H-Ras or with an H-Ras/K-Ras C-terminus fusion
assayName: In vivo (cellular) inhibitory activity for Ras farnesyl transferase, Rat2 cell line transformed with fused protein of H-Ras substituted with polybasic lysine domain at C-terminus of K-Ras
Type: cell-based
conditionSummary: Rat2 cell line transformed with H-Ras fused with polybasic lysine domain of K-Ras C-terminus; concentration inhibiting 50% of farnesyl bonding; read-out: K-Ras CIC50
valueKind: IC50

Known results for molecules:
# molecule, target, IC50
measured = [
    ("O=C(c1cn(Cc2cncn2Cc2cccc3ccccc23)cc1-c1cccc2ccccc12)N1CCOCC1 [Compound 6]", "Ras farnesyl transferase (Rattus norvegicus, UniProt Q02293+Q04631)", "10 to 50 µM"),
    ("COCCCn1cncc1Cn1cc(C(=O)N(C)CCOC)c(-c2cccc3ccccc23)c1 [Compound 122]", "Ras farnesyl transferase (Rattus norvegicus, UniProt Q02293+Q04631)", "< 30 µM"),
    ("COCCN(C)C(=O)c1cn(Cc2cncn2Cc2ccc(Cl)cc2)nc1-c1cccc2ccccc12 [Compound 155]", "Ras farnesyl transferase (Rattus norvegicus, UniProt Q02293+Q04631)", "15 µM"),
]

We now examine a further molecule.
Query for Ras farnesyl transferase (Rattus norvegicus, UniProt Q02293+Q04631): what IC50 does the record show for COCCN(C)C(=O)c1cn(Cc2cncn2CC(C)C)cc1-c1cccc2ccccc12 [Compound 115] ? < 50 µM

* * *

target: Ras farnesyl transferase (Rattus norvegicus, UniProt Q02293+Q04631)
Construct: endogenous in cells; host or cells: Rat2 fibroblasts transformed with H-Ras or with an H-Ras/K-Ras C-terminus fusion
assayName: In vivo (cellular) inhibitory activity for Ras farnesyl transferase, Rat2 cell line which expresses C-Harvey-Ras protein
Type: cell-based
conditionSummary: Rat2 cell line expressing C-Harvey-Ras; concentration inhibiting 50% of farnesyl bonding of Ras protein; read-out: H-Ras CIC50
valueKind: IC50 (nM)
I only need the number, in nM, no unit after it.

Sample records with IC50:
# chemSmiles, target, IC50 (nM)
measured = [
    ("COCCN(C)C(=O)c1cn(Cc2cncn2Cc2cccc(Cl)c2)cc1-c1cccc2ccccc12", "Ras farnesyl transferase (Rattus norvegicus, UniProt Q02293+Q04631)", 25),
    ("CN1CCN(C(=O)c2cn(Cc3cncn3Cc3ccccc3F)cc2-c2cccc3ccccc23)CC1", "Ras farnesyl transferase (Rattus norvegicus, UniProt Q02293+Q04631)", 30),
    ("COCCN(C)C(=O)c1cn(Cc2cncn2CC2CCN(C(=O)OCc3ccccc3)CC2)nc1-c1cccc2ccccc12", "Ras farnesyl transferase (Rattus norvegicus, UniProt Q02293+Q04631)", 100),
]

Next, consider the following compound.
Which value of IC50 has been reported for O=C(c1cn(Cc2cncn2Cc2cccc3ccccc23)cc1-c1cccc2ccccc12)N1CCOCC1 in the records? 25

* * *

target: Ras farnesyl transferase (Homo sapiens, UniProt P49354+P49356)
Construct: made in house
assayName: In vitro inhibitory activity for Ras farnesyl transferase, H-Ras substrate
Format: biochemical
conditionSummary: recombinant farnesyl transferase 4.5 nM, Ras substrate protein 1.5 μM, tritium-farnesylpyrophosphate 0.15 μM, 30 minutes at 37° C.; read-out: H-Ras IC50
Let's look at some molecules and their measured pIC50.
Note: pIC50 values are expressed as the negative base-10 logarithm of concentration in M.

Illustrative cases are given below, each with its answer.
# molecule, target, pIC50
measured = [
    ("COCCN(C)C(=O)c1cn(Cc2cncn2CCc2ccc(OC)cc2)cc1-c1cccc2ccccc12", "Ras farnesyl transferase (Homo sapiens, UniProt P49354+P49356)", 9.00),
    ("Cn1cncc1Cn1cc(C(=O)N2CCOCC2)c(-c2cccc3ccccc23)n1", "Ras farnesyl transferase (Homo sapiens, UniProt P49354+P49356)", 6.82),
    ("O=C(c1ccccc1Br)c1cn(Cc2c[nH]cn2)cc1-c1cccc2ccccc12", "Ras farnesyl transferase (Homo sapiens, UniProt P49354+P49356)", 7.05),
    ("O=C(c1cn(Cc2c[nH]cn2)cc1-c1cccc2ccccc12)N1CCSCC1", "Ras farnesyl transferase (Homo sapiens, UniProt P49354+P49356)", 7.52),
    ("COCCN(C)C(=O)c1cn(Cc2cncn2Cc2cccc(Cl)c2)cc1-c1cccc2ccccc12", "Ras farnesyl transferase (Homo sapiens, UniProt P49354+P49356)", 8.46),
    ("N#Cc1ccc(Cn2cncc2Cn2cc(C(=O)N3CCOCC3)c(-c3cccc4ccccc34)c2)cc1", "Ras farnesyl transferase (Homo sapiens, UniProt P49354+P49356)", 9.30),
    ("O=C(c1cn(Cc2cncn2Cc2ccc(Br)cc2)nc1-c1cccc2ccccc12)N1CCOCC1", "Ras farnesyl transferase (Homo sapiens, UniProt P49354+P49356)", 6.52),
    ("O=C(c1ccc(-c2ccccc2)cc1)c1cn(Cc2c[nH]cn2)cc1-c1cccc2ccccc12", "Ras farnesyl transferase (Homo sapiens, UniProt P49354+P49356)", 6.92),
]

Please state recorded pIC50 (tested on Ras farnesyl transferase (Homo sapiens, UniProt P49354+P49356)) of CN1CCN(C(=O)c2cn(Cc3c[nH]cn3)cc2-c2cccc3ccccc23)CC1 7.85

Provide the documented pIC50 with Ras farnesyl transferase (Homo sapiens, UniProt P49354+P49356) as the system for CN1CCN(C(=O)c2cn(Cc3cncn3Cc3ccccc3F)cc2-c2cccc3ccccc23)CC1 8.62

Return pIC50 measured with Ras farnesyl transferase (Homo sapiens, UniProt P49354+P49356) given this molecule: O=C(c1sc(Cc2cncn2Cc2ccc(Cl)cc2)nc1-c1cccc2ccccc12)N1CCOCC1 5.30

So what pIC50 did CSCc1ccc(C(=O)c2cn(Cc3c[nH]cn3)cc2-c2cccc3ccccc23)cc1 get with Ras farnesyl transferase (Homo sapiens, UniProt P49354+P49356)? 6.13

Record CCOC(=O)c1nc(Cc2cnc[nH]2)sc1-c1cccc2ccccc12 : what is its pIC50 with Ras farnesyl transferase (Homo sapiens, UniProt P49354+P49356)? 6.42

Request body: readout pIC50, system Ras farnesyl transferase (Homo sapiens, UniProt P49354+P49356), query CC(c1ccccc1)n1cncc1Cn1cc(C(=O)N2CCOCC2)c(-c2cccc3ccccc23)c1 (stereo in doubt) . Return the value. 8.30

Lab note: need pIC50 for C[C@@H](c1ccccc1)n1cncc1Cn1cc(C(=O)N2CCOCC2)c(-c2cccc3ccccc23)c1 on Ras farnesyl transferase (Homo sapiens, UniProt P49354+P49356), anyone have it? 8.30

Form: Entry = COC(=O)N1CCC(Cn2cncc2Cn2cc(C(=O)N3CCOCC3)c(-c3cccc4ccccc34)n2)CC1 | System = Ras farnesyl transferase (Homo sapiens, UniProt P49354+P49356) | pIC50 = ____ 6.52
